tested-on: human CDH6 with EC5 removed, on HEK293T cells (HEK293T-hCDH6-EC5 deletion) (human) (UniProt P55285)
method-summary: FACS, HEK293T-hCDH6-EC5 deletion cells
readout-type: Max MFI (MFI)
Provide the reading as a plain figure in MFI.

Solved entries (count: 2):
CHI-CDH6-3 (antibody, human IgG1, kappa, V domains shown) VH: QVQLQQPGAELVKPGASVKLSCKASGYTFTSYWIHWVKQRPGQGLEWIGEINPSNGVTNCNENFKSKATLTVDKSSSTAYMQLSSLTSEDSAVYYCTIPNLLWWYFDVWGAGTTVTVSS VL: DIQMTQSPASLSVSVGETVTITCRASENIYSNLAWYQQKQGKSPQLLVYEATNLADGVPSRFSGSGSGTQYSLKINSLQSEDFGSYYCQHFWGTLWTFGGGTKLEIKR
5610
CHI-CDH6-14 (antibody, human IgG1, kappa, V domains shown, also called CHI- hCDH6-14) VH: QIQLQQSGPELVKPGTSVKISCKASGYTFTDNYINWVRQRPGQGLEWIGWIYPGTGNSYYNEKFKGKATLTVDTSSSTAYMQFSSLTSEDSAVYLCASSYGDSFDYWGQGTTLTVSS VL: DIQMTQTTSSLSASLGNRVTISCRASQDIRNYLNWYQQKPDGTFKLLISYTSRLHSGVPSRFSGSGSGTDYSLTVSNLEPEDIATYYCQQYSQLPWTFGGGSRLEIKR
4040

We now examine a further binder.
*Q* Which Max MFI is reported for this binder? CHI-CDH6-7 (antibody, human IgG1, kappa, V domains shown) VH: EVKLVESGGGLVKPGGSLKVSCAASGFTFSDHGMAWVRQAPGKGPEWVAFISNLAYSIYYADTVTGRFTISRENAKNTLYLEMSSLRSEDTAMYYCARVYVKWYFDVWGAGTTVTVSS VL: DIQMTQSPASLSASVGETVTITCRASENIDSYLAWYQQKQGKSPQLLVFAATLLADGVPSRFSGSGSGTQYSLKINSLQSEDVARYYCQHYYSTPLTFGAGTKLELKR
*A* 1020
